molecular target: PUP1 nuclear base transporter (Arabidopsis thaliana, UniProt Q9FZ96, S63G); construct: The PUP1 protein expressed by the yeast strain MG887ura3^−::pFL61-PUP1; expressed in transfected cells; host or cells: Saccharomyces cerevisiae MG887ura3- (fcy2), plasmid pFL61-PUP1; test: Influence of inhibitors on PUP1-mediated adenine or cytosine uptake in yeast strain MG887ura3-::pFL61-PUP1; assay type: cell-based; details: 100 μM inhibitor, added five minutes before measurement; without inhibitor = 100
Sequence (Q9FZ96 whole entry S63G): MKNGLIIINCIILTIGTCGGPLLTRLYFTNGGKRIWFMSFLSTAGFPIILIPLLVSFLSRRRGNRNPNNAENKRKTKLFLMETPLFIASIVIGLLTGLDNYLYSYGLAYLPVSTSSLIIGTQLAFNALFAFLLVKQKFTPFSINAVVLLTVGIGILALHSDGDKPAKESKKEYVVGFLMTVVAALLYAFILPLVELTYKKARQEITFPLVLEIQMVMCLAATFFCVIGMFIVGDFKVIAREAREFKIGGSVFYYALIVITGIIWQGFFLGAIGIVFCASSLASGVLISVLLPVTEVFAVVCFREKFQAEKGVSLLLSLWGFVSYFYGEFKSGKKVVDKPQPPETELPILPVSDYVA
Kindly state Relative adenine uptake for each of the entries shown.
Express the result in % but write the number alone.

-- ask Answer with reported Relative adenine uptake of C(=NC1CCCCC1)=NC1CCCCC1
-- reply 47

-- ask Answer with reported Relative adenine uptake of CC/C(=C(/CC)c1ccc(O)cc1)c1ccc(O)cc1
-- reply 4

-- ask Answer with reported Relative adenine uptake of N#CC(C#N)=NNc1cccc(Cl)c1 [CCCP, carbonyl-cyanide-m-chlorphenylhydrazone]
-- reply 13

-- ask Answer with reported Relative adenine uptake of O=[N+]([O-])c1ccc(O)c([N+](=O)[O-])c1
-- reply 54

----------
biological target: PUP1 nuclear base transporter (Arabidopsis thaliana, UniProt Q9FZ96, S63G); construct: The PUP1 protein expressed by the yeast strain MG887ura3^−::pFL61-PUP1; expressed in transfected cells; host or cells: Saccharomyces cerevisiae MG887ura3- (fcy2), plasmid pFL61-PUP1; experiment: Influence of inhibitors on PUP1-mediated adenine or cytosine uptake in yeast strain MG887ura3-::pFL61-PUP1; type: cell-based; details: 100 μM inhibitor, added five minutes before measurement; without inhibitor = 100
Kindly state Relative cytosine uptake for each of the entries shown.
Express the result in % but write the number alone.

-- ask Answer with reported Relative cytosine uptake of C(=NC1CCCCC1)=NC1CCCCC1
-- reply 55

-- ask Answer with reported Relative cytosine uptake of N#CC(C#N)=NNc1cccc(Cl)c1 [CCCP, carbonyl-cyanide-m-chlorphenylhydrazone]
-- reply 20

-- ask Answer with reported Relative cytosine uptake of CC/C(=C(/CC)c1ccc(O)cc1)c1ccc(O)cc1
-- reply 8

-- ask Answer with reported Relative cytosine uptake of O=[N+]([O-])c1ccc(O)c([N+](=O)[O-])c1
-- reply 58
